experiment: inhibitors of the yeast RAM network, pilot screen, dse1pr::URA3 reporter, 5-FOA selection (AID 869);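 further: 0% = DMSO wells with no growth and 100% = 10 µM 1-NA-PP1 with full growth; RAM network block rescues cells from 5-FOA so hits raise OD615 growth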; conditions: S. cerevisiae dse1pr::URA3 5-FOA growth, OD615, 2 d; at 10 µM; active compounds read high; strain carries analog-sensitive mutant Cbk1 kinase
I'd be grateful if you could share measured inhibition for these entries.
Answers are plain numbers, in %.

Hi! Can you tell me inhibition for each of these compounds?
1. C=CCOC(=O)C1=C(C)N=C2SCCC(=O)N2C1c1ccc(OC(=O)c2ccco2)cc1 (stereo not given)
2. COc1cc2c(cc1OC)C1=C(C#N)CN(C3CCCCC3)CN1CC2
3. COc1cccc(-n2c(Cc3cc(=O)[nH]c(=O)[nH]3)nnc2SCc2cccnc2)c1

Marked response:
1: 1.94; 2: 2.15; 3: 0

For every item in the list below, what is its measured inhibition?
1. CCOC(=O)c1ccc2c(c1)NC(=O)C(N1CCN(c3ccc(OC)cc3)CC1)S2 (stereo not given)
2. Cc1ccc(NS(=O)(=O)c2cc(C(=O)O)ccc2Cl)cc1

Marked response:
1: 4.31; 2: 1.16
